// reported normalized growth for each item listed
- Assay Explanation: chemical genetic growth profiling, strain panel (AID 1159580);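 note: tested at 20 µM; growth read once vehicle control cultures reached saturation at 30 °C; 1 = growth at the plate median or of vehicle wells; lower values mean less growth of the strain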
- Assay Context: S. cerevisiae deletion strains, growth OD, locus YMR219W, strain ESC1, stronger effect = lower value
Among all 5,500 compounds or so, about 2,000 (36%) were called active. Roughly 18% stayed inconclusive and do not appear here. This is one part of the list.
Outcome Measure: normalized growth

- Compound: "Cc1cccc(C)c1N=C1SCCS1"
  Reported: 0.996
- Compound: "O=C(O)CCCNCc1cccc2ccccc12"
  Reported: 0.992
- Compound: "Clc1ccc(Sc2ncnc3ccsc23)cc1"
  Reported: 0.885
- Compound: "O=C1c2ccccc2C(=O)N1CN(CCSc1ccccc1)CN1C(=O)c2ccccc2C1=O"
  Reported: 0.992
- Compound: "c1ccc(CN2CCC(n3nnc4cccnc43)CC2)cc1"
  Reported: 1
- Compound: "O=C1NC2CC2N1C(=O)OCc1ccccc1 (centres undefined)"
  Reported: 1
- Compound: "CCOC(=O)CSc1nc2cc(C(F)(F)F)cnc2n1C"
  Reported: 0.989
- Compound: "O=[N+]([O-])c1ccc(N2CCOCC2)cc1"
  Reported: 0.992
- Compound: "CCOC(=O)c1ccc(NC(=O)CCC(=O)O)cc1"
  Reported: 0.991
